Exercise: state measured optical density for each of the binders provided.
Target: mouse ACVR2A (mouse, UniProt P27038 20-135, limits assumed); also: test concentration or dose not given here
Sequence (P27038 20-135 limits assumed): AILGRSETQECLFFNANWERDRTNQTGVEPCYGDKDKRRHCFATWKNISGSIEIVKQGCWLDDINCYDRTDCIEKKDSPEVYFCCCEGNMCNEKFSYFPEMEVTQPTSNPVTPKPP
Test: ELISA
Experimental: The binding of ACVR2A-specific monoclonal antibodies to human ACVR2A, mouse ACVR2A, biotinylated goat anti-human kappa light chain (positive control) and human Fc (negative control) were determined by ELISA.
Only the number, expressed in OD, is required.

Challenge: Entry 374_E05 (antibody, V domains shown, VH/VL only) VH: EVQLLESGGGLVQPGGSLRLSCAASGFTFSSYSMNWVRQAPGKGLEWVAGINYNGGYTSYADSVKGRFTISRDNSKNTLYLQMNSLRAEDTAVYYCARSANWHDTALDYWGQGTLVTVSS VL: DIQMTQSPSSLSASVGDRVTITCRASQSILSFVNWYQQKPGKAPKLVIYAATSRASGVPSRFSGSGSGTDFTLTISSLQPEDFATYYCQQSYNLPLTFGGGTKVEIK has what optical density?
Response given: 3.57

Challenge: Entry 375_A05 (antibody, V domains shown, VH/VL only) VH: EVQLLESGGGLVQPGGSLRLSCAASGFTFSSYGMNWVRQAPGKGLEWVANINYNGGYKGYADSVKGRFTISRDNSKNTLYLQMNSLRAEDTAVYYCARSANWHDTALDYWGQGTLVTVSS VL: DIQMTQSPSSLSASVGDRVTITCRASQSILSYLNWYQQKPGKAPKLLIYAATSRASGVPSRFSGSGSGTDFTLTISSLQPEDFATYYCQQSYDLPLTFGGGTKVEIK has what optical density?
Response given: 3.69

Challenge: Entry 374_F01 (antibody, V domains shown, VH/VL only) VH: EVQLLESGGGLVQPGGSLRLSCAASGFTFDSYSMNWVRQAPGKGLEWVSNINYNGGYTGYADSVKGRFTISRDNSKNTLYLQMNSLRAEDTAVYYCARSANWHDTALDYWGQGTLVTVSS VL: DIQMTQSPSSLSASVGDRVTITCRASQSILSYVNWYQQKPGKAPKLVIYAATSRHSGVPSRFSGSGSGTDFTLTISSLQPEDFATYYCQQSYENPLTFGGGTKVEIK has what optical density?
Response given: 3.6

Challenge: Entry 375_C06 (antibody, V domains shown, VH/VL only) VH: EVQLLESGGGLVQPGGSLRLSCAASGFTFDDYGMHWVRQAPGKGLEWVASINYNSGYTSYADSVKGRFTISRDNSKNTLYLQMNSLRAEDTAVYYCARSANWHDTALDYWGQGTLVTVSS VL: DIQMTQSPSSLSASVGDRVTITCRASQSILTYVNWYQQKPGKAPKLVIYATTSRASGVPSRFSGSGSGTDFTLTISSLQPEDFATYYCQQSYDSPLTFGGGTKVEIK has what optical density?
Response given: 3.21

Challenge: Entry 366_C02 (antibody, V domains shown, VH/VL only) VH: EVQLLESGGGLVQPGGSLRLSCAASGFTFSDYSMNWVRQAPGKGLEWVANINYNGGYTGYADSVKGRFTISRDNSKNTLYLQMNSLRAEDTAVYYCARSATWHDTHLDYWGQGTLVTVSS VL: DIQMTQSPSSLSASVGDRVTITCRASQSIVSYLNWYQQKPGKAPKLLIYAATSRASGVPSRFSGSGSGTDFTLTISSLQPEDFATYYCQQSYDNPLTFGGGTKVEIK has what optical density?
Response given: 3.04

Challenge: Entry 376_B04 (antibody, V domains shown, VH/VL only) VH: EVQLLESGGGLVQPGGSLRLSCAASGFTFDSYGMHWVRQAPGKGLEWVASINYNGGYTGYADSVKGRFTISRDNSKNTLYLQMNSLRAEDTAVYYCARSANWHDTALDYWGQGTLVTVSS VL: DIQMTQSPSSLSASVGDRVTITCRASQSIVSYVNWYQQKPGKAPKLVIYAATSRASGVPSRFSGSGSGTDFTLTISSLQPEDFATYYCQQSYDTPLTFGGGTKVEIK has what optical density?
Response given: 3.48

Challenge: Entry 365_F08 (antibody, V domains shown, VH/VL only) VH: EVQLLESGGGLVQPGGSLRLSCAASGFTFDDYGMNWVRQAPGKGLEWVANINYNGGYTSYADSVKGRFTISRDNSKNTLYLQMNSLRAEDTAVYYCARSATWHDTHLDYWGQGTLVTVSS VL: DIQMTQSPSSLSASVGDRVTITCRASQSILSYVNWYQQKPGKAPKLLIYAATSRHSGVPSRFSGSGSGTDFTLTISSLQPEDFATYYCQQSYSLPLTFGGGTKVEIK has what optical density?
Response given: 2.61

Challenge: Entry 374_C02 (antibody, V domains shown, VH/VL only) VH: EVQLLESGGGLVQPGGSLRLSCAASGFTFDSYSMNWVRQAPGKGLEWVSGINYNGGYTGYADSVKGRFTISRDNSKNTLYLQMNSLRAEDTAVYYCARSATWHDTHLDYWGQGTLVTVSS VL: DIQMTQSPSSLSASVGDRVTITCRASQSILSYLNWYQQKPGKAPKLLIYAATSRHSGVPSRFSGSGSGTDFTLTISSLQPEDFATYYCQQSYDSPLTFGGGTKVEIK has what optical density?
Response given: 3.64

Challenge: Entry 373_B03 (antibody, V domains shown, VH/VL only) VH: EVQLLESGGGLVQPGGSLRLSCAASGFTFSSYSMNWVRQAPGKGLEWVAGINYNSGYKSYADSVKGRFTISRDNSKNTLYLQMNSLRAEDTAVYYCARSATWHDTHLDYWGQGTLVTVSS VL: DIQMTQSPSSLSASVGDRVTITCRASQSILTYLNWYQQKPGKAPKLVIYAATSLASGVPSRFSGSGSGTDFTLTISSLQPEDFATYYCQQSYDNPLTFGGGTKVEIK has what optical density?
Response given: 3.62

Challenge: Entry 368_H12 (antibody, V domains shown, VH/VL only) VH: EVQLLESGGGLVQPGGSLRLSCAASGFTFDSYSMNWVRQAPGKGLEWVASINYNSGYKGYADSVKGRFTISRDNSKNTLYLQMNSLRAEDTAVYYCARSATWHDTHLDYWGQGTLVTVSS VL: DIQMTQSPSSLSASVGDRVTITCRASQSIVTYLNWYQQKPGKAPKLLIYAATSRASGVPSRFSGSGSGTDFTLTISSLQPEDFATYYCQQSYESPLTFGGGTKVEIK has what optical density?
Response given: 2.69
